The following are reported pIC50 results, target or system SsoRadA (Saccharolobus solfataricus, UniProt Q55075).
One number for each entry, as −log10 of the molar value.

Please give pIC50, item by item, for the list that follows.
1. Nc1ncnc2c1ncn2[C@@H]1O[C@H](CO[P@](=O)(O)O[P@](=O)(O)O[P@@](=O)(O)S)[C@@H](O)[C@H]1O [ATPγS]
2. Nc1ncnc2c1ncn2[C@@H]1O[C@H](COP(=O)(O)OP(=O)(O)O)[C@@H](O)[C@H]1O [ADP]

Reply |
1: 4.06; 2: 3.95
